# Tested on: two-spotted mite (Tetranychus urticae Koch)
# Procedure summary: Mite Foliage Spray Test
# Type: in vivo
# Parameters: key: C: no control; B: partial control; A: excellent control
# Test conditions: foliage spray, 500 parts per million, six days
Reported metric: Mite (Spray)

| Molecule | Result |
| --- | --- |
| COC(C)(C)C(Cl)=NOC(=O)N(C)SC(Cl)(Cl)Cl | A |
| CCOC(=O)CSC(C)=NOC(=O)N(C)SC(Cl)(Cl)Cl | C |
| CCOC(=O)CSC(C)(C)C=NOC(=O)N(C)SC(Cl)(Cl)Cl | C |
| CC(=NOC(=O)N(C)SC(Cl)(Cl)Cl)SCCC#N | A |
| CC(=NOC(=O)N(C)SC(Cl)(Cl)Cl)C(C)(C)[N+](=O)[O-] | A |
| CSC(=NOC(=O)N(C)SC(Cl)(Cl)Cl)C(C)(SC)SC | A |
| CN(SC(Cl)(Cl)Cl)C(=O)ON=CC(C)(C)[N+](=O)[O-] | A |
| CC(=NOC(=O)N(C)SC(Cl)(Cl)Cl)C(C)(C)C#N | A |
| CN(SC(Cl)(Cl)Cl)C(=O)ON=CC(C)(C)[S+](C)[O-] (centres unmarked) | A |
| CSCC(C)=NOC(=O)N(C)SC(Cl)(Cl)Cl | C |
| CC(CSC(C)(C)C)=NOC(=O)N(C)SC(Cl)(Cl)Cl | C |

Hello, the source for this data is patent US4029688A, in case you need it.
